I'd be grateful if you could share measured Bliss excess for these entries.
- Test system: MOG-G-UVW (Low Grade Glioma);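 further: after 72 h of two-drug dosing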
- experiment_summary: Bliss excess, mean over the matrix (fraction); higher = more synergy
Answers are plain numbers.

| compound | assayed_target | Bliss excess |
| --- | --- | --- |
| COc1nnc2ccc(N3CCC(c4ccc(OCCN5CCN(C)C(=O)[C@H]5C)cc4)CC3)nn12 [AZD5153] + C=CCn1c(=O)c2cnc(Nc3ccc(N4CCN(C)CC4)cc3)nc2n1-c1cccc(C(C)(C)O)n1 [AZD1775] (first compound max 1 µM, partner max 1 µM) | MOG-G-UVW (Low Grade Glioma) | -0.0518 |
| CS(=O)(=O)CCNCc1ccc(-c2ccc3ncnc(Nc4ccc(OCc5cccc(F)c5)c(Cl)c4)c3c2)o1 [Lapatinib] + NC1(c2ccc(-c3nc4ccn5c(=O)[nH]nc5c4cc3-c3ccccc3)cc2)CCC1 [MK-2206] (first compound max 10 µM, 7x7, partner max 10 µM) | MOG-G-UVW (Low Grade Glioma) | 0.0675 |
| N#Cc1cnc(Nc2cc(NC[C@H]3CNCCO3)c(C(F)(F)F)cn2)cn1 [SRA737] + O=c1[nH]cc(F)c(=O)[nH]1 [5-Fluorouracil] (first compound max 10 µM, 7x7, partner max 20 µM) | MOG-G-UVW (Low Grade Glioma) | 0.0006 |
| CC1(C)CCC(CN2CCN(c3ccc(C(=O)NS(=O)(=O)c4ccc(NCC5CCOCC5)c([N+](=O)[O-])c4)c(Oc4cnc5[nH]ccc5c4)c3)CC2)=C(c2ccc(Cl)cc2)C1 [Venetoclax] + C=CCn1c(=O)c2cnc(Nc3ccc(N4CCN(C)CC4)cc3)nc2n1-c1cccc(C(C)(C)O)n1 [AZD1775] (first compound max 1 µM, partner max 1 µM) | MOG-G-UVW (Low Grade Glioma) | 0.0612 |
| NC1(C(=O)N[C@@H](CCO)c2ccc(Cl)cc2)CCN(c2ncnc3[nH]ccc23)CC1 [Capivasertib] + CC(C)n1c(=O)n(C)c2cnc3cc(F)c(-c4ccc(OCCCN5CCCCC5)nc4)cc3c21 [AZD1390] (first compound max 10 µM, 7x7, partner max 0.3 µM) | MOG-G-UVW (Low Grade Glioma) | -0.0278 |

Provide Bliss excess for all items below, preserving their order.
1. Cc1c2c(nn1C)CSCc1cc(n(C)n1)CSc1cc(c3ccccc3c1)OCCCc1c(C(=O)O)n(C)c3c-2c(Cl)ccc13 [AZD5991] + CCN(CCO)CCCOc1ccc2c(Nc3cc(CC(=O)Nc4cccc(F)c4)[nH]n3)ncnc2c1 [AZD2811] (first compound max 1 µM, 7x7, partner max 1 µM)
2. COc1nnc2ccc(N3CCC(c4ccc(OCCN5CCN(C)C(=O)[C@H]5C)cc4)CC3)nn12 [AZD5153] + C[C@@H]1COCCN1C2=NC(=NC(=C2)C3(CC3)[S@](=N)(=O)C)C4=C5C=CNC5=NC=C4 [AZD6738] (first compound max 1 µM, 7x7, partner max 10 µM)

## Output
1: 0.0197; 2: -0.046

Origin of the recorded values: the supplement of paper PMC11061612
